Data credit: paper PMC10373542

molecular target: SARS-CoV-2 WA-1 spike receptor binding domain (RBD) (SARS-CoV-2 WA-1 (S identical to …, UniProt P0DTC2)); test: cell-based or functional assay
Response field label takes t when IC50 of neutralization of WA-1 pseudotyped virus on HEK293 cells expressing ACE2 is strictly below 1 µg/mL and f in all other cases.

Worked cases, answers included:
{"columns": ["BINDER", "CATEGORY_LABEL"],
 "data": [
  ["7D6 monoclonal antibody (antibody, V domains shown) VH: EVQLQQSGAELVRPGASVKLSCTASGFNIKDTYIHWVKQRPEQGLEWIGRIDPGDGDTEYDPSFQGKATITADTSSNTAYLELSSLTSEDTAVYYCTRFYDYVDYGMDYWGQGTSVTVSS VL: DIQMTQSPASLSASVGETVTITCRASGNIHNYLAWYQQKQGKSPQLLVYNAKTLADGVPSRFSGSGSGTQYSLKINSLQPEDFGSYYCQHFWSTPPWTFGGGTKLEVK", "t"],
  ["X17 monoclonal antibody (antibody, V domains shown) VH: QVQLQQSGAELARPGASVKLSCKASGYTFTFYWMQWLKQRPGQGLEWIGAIYPGDGDTRYTQRFKDKATLTADKSSSTAYIQLSSLASEDSAVYYCAGGEYDNYGFDYWGQGTTLTVSS VL: DIQMTQTTSSLSASLGDRVTISCRASQDISNYLNWYQQKPDGTVKLLIYYTSRLHSGVPSRFSGSGSGTDYSLTISNLEQEDIATYFCQQGTTLPYTFGGGTKLEIK", "f"]
]}

In: IC50 of neutralization of WA-1 pseudotyped virus on HEK293 cells expressing ACE2 under 1 µg/mL? Item: 6D6 monoclonal antibody (antibody, V domains shown) VH: EVQLQQSGAELVKPGASVKLSCTTSGFNIIDTYMHWVKQRPEEGLEWIGGIDPVNGNSEYDPKFQDKATITADTSSNTAYLHLSRLTSEDTAVYYCASAHYYGSSSSFPYWGQGTDLVTVS VL: DIVMTQSQKFMSTSVGDRVSVTCKASQNVGTHVAWYQQKPGQSPKALIYSASYRYSGVPDRFTGSGVGTDFTLTITNVQSEDLAEYFCQQYNSYFTFGSGTKLEIK
Out: f

In: What do we get for S2H97 monoclonal antibody (antibody, V domains shown) VH: QVRLVQSGAEVKKSGESLKISCKGSGYSFTSYWIGWVRQMPGKGLEWMGIIYPGDSDTRYSPSFQGQVTISADKSISTVYLQWSSLKASDTAMYYCARQWSHYTYDYYYWGQGTLVTISS VL: QSVLTQPASVSGSPGQSITISCTGISSDVGGYNSVSWYQQHPGKAPKLMIYDVTNRPSGVSNRFSGSKSGNTASLTISGLQAEDEADYYCSSYTSSSTPPYVFGTGTKVSVL ?
Out: t

In: Could you do the same for Walter Reed Army Institute of Research 2063 (WRAIR-2063) monoclonal antibody, human IgG1 (antibody, V domains shown) VH: EVQLVESGGGVVQPGRSLRLSCAASGFTFSSYGMHWVRQAPGKGLEWVAVIWYDGSNKYYADSVKGRFTISRDNSKNTLYLQMNSLRAEDTAVYYCARGPLGSNYFNYDAFDIWGQGTMVTVSS VL: DVVMTQSPLSLPVTLGQPASISCRSSQSLEYSDGNTYLNWFQQRPGQSPRRLIYKVSKRDSGVPDRFSGSGSGSDFTLKISRVEAEDVGVYYCMQGTHWPLTFGGGTKVEIK , please?
Out: t

In: Repeat with WRAIR-2057 monoclonal antibody (antibody, V domains shown) VH: EVQLVQSGAEVKKPGESLKISCKGSGYSFISYWIAWVRQMPGKGLEWMGIIYPGDSDTTYSPSFQGQVTISADKSISTAYLQWSSLKASDTAIYYCARLLYYSDSSPLDSWGQGTLVTVSS VL: DIQMTQSPSSLSASVGDRVTITCRASQSISTYLNWYQQKPGKAPNLLIYAASSLQSGVPSRFSGSGSGTDFTLTISSLQPEDFATYYCQQSHSTPRTFGPGTKVDIK
Out: f
